# EC50 values compiled below
TARGET UNDER TEST: human muscarinic M4 receptor (Homo sapiens)
Construct: expressed in transfected cells
RUN DESCRIPTION: Alphascreen Surefire phospho-ERK1/2 functional assay, M4
Format: cell-based
CONDITION NOTES: CHO cells stably expressing human M4; phospho-ERK1/2; read-out: pEC50 M4 (converted)
Respond numerically; units are nM and should not be typed.

Here's what some known entries look like.
State, in one line, measured EC50 of CCOC(=O)NCC1CCN(C2CCC3(CC2)C(=O)Nc2ccccc23)CC1 (single isomer, unassigned) [7-2 isomer 1]
170

Return value of EC50 for input CCOC(=O)N1CCCN(C2CCC(C#N)(c3cccc(C)c3)CC2)CC1 (mixture of isomers) [3-8 mixture of isomers] , no commentary.
105

For CCOC(=O)N1CCCN(C2CCC3(CC2)C(=O)Nc2ccc(OC)nc23)CC1 (single isomer, unassigned) [4-24 isomer 1] , write its EC50.
316

New cases:
Query EC50 for CCOC(=O)N1CCCN(C2CCC(C#N)(c3cccc(Cl)c3)CC2)CC1 (mixture of isomers) [3-5 mixture of isomers]
309

Specify measured EC50 for CCOC(=O)NC1CCN(C2CCC3(CC2)C(=O)Nc2ccccc23)CC1 (single isomer, unassigned) [7-1 isomer 1] .
158

State its EC50 for this molecule: CCOC(=O)N1CC2CN(C3CCC(C#N)(c4ccccc4)CC3)CCC21 (single isomer, unassigned) [17-1 Isomer 2]
251

Fill in reported EC50 for this entry: CCOC(=O)N1CCCN(C2CCC(C#N)(c3cccc(F)c3)CC2)CC1 (mixture of isomers) [3-2 mixture of isomers]
74.1

Specify measured EC50 for CCOC(=O)N[C@@H]1CCN(C2CCC(C#N)(c3cccc(F)c3)CC2)C1 (single isomer, unassigned) [1-6 Isomer 2] .
1780

Give the value of EC50 reported for the following: C#CCOC(=O)N1CCCN(C2CCC(C#N)(c3ccc(OC)cn3)CC2)CC1 (single isomer, unassigned) [3-31 Isomer 1]
2570

Quick one: give measured EC50 for CCOC(=O)N1CCC2(CCN(C3CCC(C#N)(c4ccccc4)CC3)CC2)C1 (single isomer, unassigned) [13-1 Isomer 2]
0.145

Could you please provide reported EC50 for CCOC(=O)N(C)[C@@H]1CCN(C2CCC3(CC2)C(=O)Nc2cccnc23)C1 (single isomer, unassigned) [2-21 isomer 2] ? Thanks!
245

Return the recorded EC50 value; entry: COc1ccc(C2(C#N)CCC(N3CCC4(CC(c5nc(C)no5)C4)C3)CC2)nc1 (single isomer, unassigned) [21-4 Isomer 4]
309

Return value of EC50 for input CC#CCOC(=O)N1CCCN(C2CCC(C#N)(c3ccncc3)CC2)CC1 (single isomer, unassigned) [3-30 Isomer 1] , no commentary.
229

* * *

TARGET UNDER TEST: human muscarinic M4 receptor (Homo sapiens, UniProt P08173)
Construct: expressed in transfected cells
Sequence (P08173 whole entry): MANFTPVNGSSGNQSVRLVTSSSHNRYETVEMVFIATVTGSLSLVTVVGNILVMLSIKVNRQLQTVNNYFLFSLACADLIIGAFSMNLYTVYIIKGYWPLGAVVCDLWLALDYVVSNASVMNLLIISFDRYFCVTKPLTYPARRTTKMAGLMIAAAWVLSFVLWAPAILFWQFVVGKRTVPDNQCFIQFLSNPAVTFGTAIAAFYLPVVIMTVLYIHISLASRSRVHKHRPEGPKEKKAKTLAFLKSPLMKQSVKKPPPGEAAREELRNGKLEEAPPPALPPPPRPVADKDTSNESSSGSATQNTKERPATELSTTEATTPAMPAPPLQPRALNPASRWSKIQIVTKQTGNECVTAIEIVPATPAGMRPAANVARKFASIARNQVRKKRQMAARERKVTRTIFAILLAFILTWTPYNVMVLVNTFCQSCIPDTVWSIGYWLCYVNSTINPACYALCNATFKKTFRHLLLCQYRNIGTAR
RUN DESCRIPTION: Alphascreen Surefire phospho-ERK1/2 functional assay, M4
Format: cell-based
CONDITION NOTES: CHO cells stably expressing human M4; Emax relative to ACh
Catalogue of M4 % Emax cf. ACh values
Use % as the unit, but write only the number.

In the examples that follow, each entry is paired with its recorded M4 % Emax cf. ACh.
Provide one value: measured M4 % Emax cf. ACh of COc1ccc2c(c1)C1(CCC(N3CCC4(CC(c5nc(C)no5)C4)C3)CC1)C(=O)N2 (single isomer, unassigned) [26-2 Isomer 1]
35

Given Cc1noc(C2CC3(CCN(C4CCC(C#N)(c5ccc(F)cn5)CC4)C3)C2)n1 (single isomer, unassigned) [21-3 Isomer 3] , respond with its M4 % Emax cf. ACh.
15

In one line, give reported M4 % Emax cf. ACh of the entry CC(=O)OCC[N+](C)(C)C .
110

Determine from records and report M4 % Emax cf. ACh for CCOC(=O)N[C@H]1CCN(C2CCC3(CC2)C(=O)Nc2cc(F)ccc23)C1 (single isomer, unassigned) [2-7 isomer 1]
1

Input Cc1ccc(C2(C#N)CCC(N3CCC4(CC(c5nc(C)no5)C4)C3)CC2)nc1 (single isomer, unassigned) [21-5 Isomer 2] , output reported M4 % Emax cf. ACh.
51

State its M4 % Emax cf. ACh for this compound: CCOC(=O)N1CCCN(C2CCC3(CC2)C(=O)Nc2cccc(C)c23)CC1 (single isomer, unassigned) [4-8 isomer 1]
52

Determine from records and report M4 % Emax cf. ACh for CCOC(=O)NCC1CCN(C2CCC3(CC2)C(=O)Nc2ccccc23)CC1 (single isomer, unassigned) [7-2 isomer 1]
32

Given CCOC(=O)N[C@H]1CCN(C2CCC3(CC2)C(=O)Nc2cc(F)ccc23)C1 (single isomer, unassigned) [2-7 isomer 2] , respond with its M4 % Emax cf. ACh.
16

Identify measured M4 % Emax cf. ACh associated with CCOC(=O)NCC1CCN(C2CCC3(CC2)C(=O)Nc2ccccc23)CC1 (single isomer, unassigned) [7-2 isomer 2]
10

Supply recorded M4 % Emax cf. ACh for COc1ccc2c(c1)C1(CCC(N3CCC4(CC(c5nc(C)no5)C4)C3)CC1)C(=O)N2 (single isomer, unassigned) [26-2 Isomer 3] here.
14

Further cases:
Return the recorded M4 % Emax cf. ACh value; entry: CCOC(=O)N1CCCN(C2CCC3(CC2)C(=O)Nc2cccc(C)c23)CC1 (single isomer, unassigned) [4-8 isomer 2]
95

Report M4 % Emax cf. ACh, nothing else, for this compound: CCOC(=O)NC1CCN(C2CCC3(CC2)C(=O)Nc2ccccc23)CC1 (single isomer, unassigned) [7-1 isomer 2]
20
